# experimental-target: human TLR7 (Homo sapiens)
# Construct: host or cells: HEK-Blue cells
# Sequence (Q9NYK1 27-1049): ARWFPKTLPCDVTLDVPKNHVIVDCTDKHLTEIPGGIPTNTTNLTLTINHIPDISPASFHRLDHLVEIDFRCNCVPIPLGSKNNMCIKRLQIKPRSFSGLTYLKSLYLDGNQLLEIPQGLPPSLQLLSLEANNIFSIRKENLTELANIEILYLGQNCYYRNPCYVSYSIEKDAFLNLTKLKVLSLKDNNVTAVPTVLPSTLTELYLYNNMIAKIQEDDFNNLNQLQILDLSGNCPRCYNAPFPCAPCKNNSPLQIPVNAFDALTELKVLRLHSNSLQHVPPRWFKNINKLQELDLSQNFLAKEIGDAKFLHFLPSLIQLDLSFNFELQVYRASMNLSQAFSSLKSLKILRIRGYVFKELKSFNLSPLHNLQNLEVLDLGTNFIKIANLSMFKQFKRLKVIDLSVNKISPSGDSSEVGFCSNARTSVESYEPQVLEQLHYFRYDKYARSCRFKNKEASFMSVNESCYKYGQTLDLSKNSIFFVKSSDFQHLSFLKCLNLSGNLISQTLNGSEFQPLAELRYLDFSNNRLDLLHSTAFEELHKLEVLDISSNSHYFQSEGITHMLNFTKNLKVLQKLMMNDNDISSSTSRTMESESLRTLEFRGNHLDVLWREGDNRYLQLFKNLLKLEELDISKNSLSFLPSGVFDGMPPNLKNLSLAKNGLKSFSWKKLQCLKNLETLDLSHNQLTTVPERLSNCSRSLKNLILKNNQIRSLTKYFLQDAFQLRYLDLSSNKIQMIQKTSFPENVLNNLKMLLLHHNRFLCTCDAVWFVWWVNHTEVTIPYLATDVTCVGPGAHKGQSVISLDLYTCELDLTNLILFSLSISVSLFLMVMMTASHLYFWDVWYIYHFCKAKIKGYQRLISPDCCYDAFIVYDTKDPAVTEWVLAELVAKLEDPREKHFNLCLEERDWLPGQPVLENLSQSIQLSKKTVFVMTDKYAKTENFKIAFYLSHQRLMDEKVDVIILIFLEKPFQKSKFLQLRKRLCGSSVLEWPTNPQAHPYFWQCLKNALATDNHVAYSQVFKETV
# method: TLR7 inhibition reporter assay (HEK-Blue cells, SEAP reporter, gardiquimod stimulation)
# Format: cell-based
# assay-context: HEK-Blue cells overexpressing human TLR7, SEAP reporter, gardiquimod 7.5 μM
endpoint: IC50 (nM)

Cc1cc(-c2[nH]nc(C(=O)NC3CCNCC3)c2C(C)C)cn2ncnc12 [Example 43]    2.54

(P) CCC(CC)CN1CCC(NC(=O)c2n[nH]c(-c3cc(C)c4ncnn4c3)c2C(C)C)CC1 [Example 79]
(Q) Cc1cc(-c2[nH]nc(-c3ncc4c(n3)CCNC4)c2C(C)C)cn2ncnc12 [Example 222]
(R) Cc1cc(-c2[nH]nc(C(=O)NCC3CCCCN3)c2C(C)C)cn2ncnc12 (stereo not shown) [Example 56]
# ascending order, key=IC50 Output spec: labels arranged per the requested ranking. Q, P, R
(Q: 0.75 nM, P: 2.29 nM, R: 4.36 nM)

====

# experimental-target: human TLR9 (Homo sapiens)
# Construct: host or cells: HEK-Blue cells
# Sequence (Q9NR96 26-1032): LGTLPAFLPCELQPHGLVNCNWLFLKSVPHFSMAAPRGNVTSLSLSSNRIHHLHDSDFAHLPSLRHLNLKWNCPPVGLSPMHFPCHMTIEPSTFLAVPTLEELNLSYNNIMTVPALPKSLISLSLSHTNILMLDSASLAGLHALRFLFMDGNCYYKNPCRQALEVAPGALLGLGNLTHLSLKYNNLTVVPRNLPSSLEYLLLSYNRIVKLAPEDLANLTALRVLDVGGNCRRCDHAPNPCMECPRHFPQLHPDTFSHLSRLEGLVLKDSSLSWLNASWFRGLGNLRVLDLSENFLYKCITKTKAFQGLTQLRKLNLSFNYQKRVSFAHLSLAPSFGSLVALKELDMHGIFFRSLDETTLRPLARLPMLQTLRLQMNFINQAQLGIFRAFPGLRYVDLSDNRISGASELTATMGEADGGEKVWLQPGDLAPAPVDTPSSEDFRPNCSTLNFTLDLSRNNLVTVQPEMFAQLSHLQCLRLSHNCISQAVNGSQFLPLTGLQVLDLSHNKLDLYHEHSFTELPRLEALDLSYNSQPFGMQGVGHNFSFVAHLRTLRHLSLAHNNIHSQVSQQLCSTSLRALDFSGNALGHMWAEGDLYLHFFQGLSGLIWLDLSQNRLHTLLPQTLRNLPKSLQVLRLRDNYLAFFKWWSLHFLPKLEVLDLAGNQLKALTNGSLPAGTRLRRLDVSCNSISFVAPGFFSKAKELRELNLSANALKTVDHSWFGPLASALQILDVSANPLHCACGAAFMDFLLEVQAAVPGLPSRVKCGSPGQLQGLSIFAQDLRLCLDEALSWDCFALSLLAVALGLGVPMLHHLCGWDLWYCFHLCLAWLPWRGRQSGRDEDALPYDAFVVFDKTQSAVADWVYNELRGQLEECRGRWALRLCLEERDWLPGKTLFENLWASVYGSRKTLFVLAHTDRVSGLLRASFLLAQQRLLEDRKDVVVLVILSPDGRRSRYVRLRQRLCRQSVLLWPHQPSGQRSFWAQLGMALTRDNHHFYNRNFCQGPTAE
# method: TLR9 inhibition reporter assay (HEK-Blue cells, SEAP reporter, ODN2006 stimulation)
# Type: cell-based
# assay-context: HEK-Blue cells overexpressing human TLR9, SEAP reporter, ODN2006 5 nM
pIC50: −log10 of the molar value.
endpoint: pIC50

Cc1cc(-c2[nH]nc(C(=O)N[C@H]3CC[C@@H](NCC(C)(C)C)CC3)c2C(C)C)cn2ncnc12 [Example 89]    5.39
COc1cc(-c2[nH]nc(-c3ccc(C4CN(C5COC5)C4)cc3)c2C(C)C)cn2ncnc12 [Example 332]    4.99
Cc1cc(-c2[nH]nc(-c3ccc(C4CCN(C5COC5)CC4)nc3)c2C(C)C)cn2ncnc12 [Example 362]    4.60
Cc1cc(-c2[nH]nc(C(=O)NC3CCCNC3)c2C(C)C)cn2ncnc12 (stereo not drawn) [Example 66]    5.24

(1) Cc1cc(-c2[nH]nc(C3CCC(N4CCC(N(C)C)CC4)CC3)c2C(C)C)cn2ncnc12 (single isomer, unassigned) [Example 292]
(2) Cc1cc(-c2[nH]nc(C(=O)N[C@H]3CC[C@@H](NCC4CCOCC4)CC3)c2C(C)C)cn2ncnc12 [Example 92]
Choose between 1 and 2 : whose measured pIC50 value is numerically larger? Refer to your chosen item by its label in the answer. 2
(2: 5.39, 1: 5.12)

(a) Cc1cc(-c2[nH]nc(C(=O)NC3CCC(NC4(C)COC4)CC3)c2C(C)C)cn2ncnc12 (stereo not drawn) [Example 124]
(b) Cc1cc(-c2[nH]nc(-c3ccc4c(c3)CCN(CC(=O)N(C)C)C4)c2C(C)C)cn2ncnc12 [Example 271]
Choose between a and b : whose measured pIC50 value is numerically larger? Refer to your chosen item by its label in the answer. b
(b: 5.34, a: 4.54)

====

# experimental-target: UniProt Q9NR97
# Sequence (Q9NR97 27-1041): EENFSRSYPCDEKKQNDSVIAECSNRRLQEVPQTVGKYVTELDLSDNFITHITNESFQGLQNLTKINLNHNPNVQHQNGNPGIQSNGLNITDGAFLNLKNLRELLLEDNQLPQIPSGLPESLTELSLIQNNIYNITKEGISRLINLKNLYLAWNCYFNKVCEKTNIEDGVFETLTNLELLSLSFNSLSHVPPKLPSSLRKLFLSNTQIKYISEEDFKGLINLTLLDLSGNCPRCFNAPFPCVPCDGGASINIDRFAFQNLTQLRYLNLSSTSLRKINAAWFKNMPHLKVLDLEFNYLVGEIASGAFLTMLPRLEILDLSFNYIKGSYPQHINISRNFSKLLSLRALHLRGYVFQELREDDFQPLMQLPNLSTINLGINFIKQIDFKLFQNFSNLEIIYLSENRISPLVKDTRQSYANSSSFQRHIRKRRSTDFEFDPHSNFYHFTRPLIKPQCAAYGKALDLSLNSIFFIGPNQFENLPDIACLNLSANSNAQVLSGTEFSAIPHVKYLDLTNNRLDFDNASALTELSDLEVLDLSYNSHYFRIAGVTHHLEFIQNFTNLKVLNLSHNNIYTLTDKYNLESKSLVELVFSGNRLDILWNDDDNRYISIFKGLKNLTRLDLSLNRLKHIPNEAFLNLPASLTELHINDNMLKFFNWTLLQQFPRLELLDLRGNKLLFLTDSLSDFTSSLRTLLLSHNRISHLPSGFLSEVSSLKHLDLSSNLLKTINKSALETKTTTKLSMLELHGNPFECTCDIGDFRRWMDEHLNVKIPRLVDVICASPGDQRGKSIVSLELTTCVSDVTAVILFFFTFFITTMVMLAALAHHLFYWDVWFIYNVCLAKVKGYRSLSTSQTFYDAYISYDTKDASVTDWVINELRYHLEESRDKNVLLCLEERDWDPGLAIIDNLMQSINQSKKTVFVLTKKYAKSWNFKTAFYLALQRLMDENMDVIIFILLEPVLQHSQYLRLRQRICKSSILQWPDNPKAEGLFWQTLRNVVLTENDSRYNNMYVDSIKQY
# method: TLR8 inhibition reporter assay (HEK-Blue cells, SEAP reporter, R848 stimulation)
# assay-context: HEK-Blue cells overexpressing human TLR8, SEAP reporter, R848 15.9 μM
endpoint: IC50 (nM)

Cc1cc(-c2[nH]nc(C(=O)N[C@H]3CC[C@H](NC(C)CC(C)(C)C)CC3)c2C(C)C)cn2ncnc12 (some centres unmarked)    16.7
Cc1cc(-c2[nH]nc(C3CCC(NCCN(C)C)CC3)c2C(C)C)cn2ncnc12 (single isomer, unassigned) [Example 284]    5.12
Cc1cc(-c2[nH]nc(C(=O)N(C)C3CCN(C)CC3)c2C(C)C)cn2ncnc12    20.9
Cc1cc(-c2[nH]nc(C(=O)N(C)C3CCN(C)C3)c2C(C)C)cn2ncnc12 (centres unmarked)    10.3
Cc1cc(-c2[nH]nc(-c3nc4c(s3)CN(CC(C)(C)O)CC4)c2C(C)C)cn2ncnc12    3.29

(P) Cc1cc(-c2[nH]nc(-c3ccc(C4CCNCC4)cn3)c2C(C)C)cn2ncnc12
(Q) Cc1cc(-c2[nH]nc(-c3cnc(N)cn3)c2C(C)C)cn2ncnc12
Choose between P and Q : whose measured IC50 value is numerically larger? Refer to your chosen item by its label in the answer. P

====

# experimental-target: human TLR7 (Homo sapiens, UniProt Q9NYK1)
# method: TLR7 inhibition reporter assay (HEK-Blue cells, SEAP reporter, gardiquimod stimulation)
# assay-context: HEK-Blue cells overexpressing human TLR7, SEAP reporter, gardiquimod 7.5 μM
# Text: TLR7/8/9 Inhibition Reporter Assays HEK-Blue™-cells (Invivogen) overexpressing human TLR7, TLR8 or TLR9 receptors were used for screening inhibitors of these receptors using an inducible SEAP (secreted embryonic alkaline phosphatase) reporter gene under the control of the IFN-β minimal promoter fused to five NF-κB and AP-1-binding sites. […]
endpoint: IC50 (nM)

COc1cc(-c2[nH]nc(-c3ccc(C4CN(CCS(C)(=O)=O)C4)cc3)c2C(C)C)cn2ncnc12    10.1
Cc1cc(-c2[nH]nc(C(=O)N3CCNCC3)c2C(C)C)cn2ncnc12    4.24
Cc1cc(-c2[nH]nc(C(=O)NC3CCCNC3)c2C(C)C)cn2ncnc12 (stereo not shown) [Example 66]    3.59

(1) CNCc1n[nH]c(-c2cc(C)c3ncnn3c2)c1C(C)C
(2) Cc1cc(-c2[nH]nc(C(=O)N(C)CCC#N)c2C(C)C)cn2ncnc12
(3) CCN1CCC(c2ccc(-c3n[nH]c(-c4cc(C)c5ncnn5c4)c3C(C)C)cn2)CC1
(4) Cc1cc(-c2[nH]nc(C(=O)N[C@H]3CC[C@@H](NCCCC(F)(F)F)CC3)c2C(C)C)cn2ncnc12
(5) CCN1CC(C(=O)N(C)C2CCC(c3n[nH]c(-c4cc(C)c5ncnn5c4)c3C(C)C)CC2)C1 (single isomer, unassigned) [Example 305]
# rank_down: sort by IC50, max first Output spec: labels arranged per the requested ranking. 3, 5, 1, 2, 4

(I) Cc1cc(-c2[nH]nc(-c3ccc(C(N)=O)cc3)c2C(C)C)cn2ncnc12
(II) Cc1cc(-c2[nH]nc(CNC3CCN(C(C)C)CC3)c2C(C)C)cn2ncnc12
Between the entries labeled I and II , whose measured IC50 is lower? Refer to your chosen item by its label in the answer. II
